- System: SK-BR-3
- protocolSummary: normalised viability (% of control), CellTiter-Blue; higher = more viable cells (about 100 = DMSO control)
- statedConditions: 100 nM; incubation time: 72 h
metric: normalised viability (%)
Answers are plain numbers, in %.

COc1cc(Nc2c(C#N)cnc3cc(OCCCN4CCN(C)CC4)c(OC)cc23)c(Cl)cc1Cl: 74.8
CNC(=O)c1ccccc1Sc1ccc2c(/C=C/c3ccccn3)n[nH]c2c1: 58.8

I have 3 compounds here; please give me normalised viability for each one.
1. C=CCN(/C=C1/C(=O)O[C@H](COC)[C@@]2(C)C1=C(O)C(=O)C1=C2[C@H](OC(C)=O)C[C@]2(C)C(=O)CC[C@@H]12)CC=C
2. Cn1cc(C2=C(c3cn(C4CCN(Cc5ccccn5)CC4)c4ccccc34)C(=O)NC2=O)c2ccccc21
3. CC(C)C[C@H](NC(=O)[C@@H](COC(C)(C)C)NC(=O)[C@H](Cc1ccc(O)cc1)NC(=O)[C@H](CO)NC(=O)[C@H](Cc1c[nH]c2ccccc12)NC(=O)[C@H](Cc1cnc[nH]1)NC(=O)[C@@H]1CCC(=O)N1)C(=O)N[C@@H](CCCNC(=N)N)C(=O)N1CCC[C@H]1C(=O)NNC(N)=O

Solution:
78.1
69.8
110

* * *

- System: MDA-MB-453
- protocolSummary: normalised response (% of control), CellTiter-Glo; higher = more viable cells (100 = DMSO, 0 = benzethonium chloride kill control)
- statedConditions: incubation time: 72 h
metric: normalised response (%)
Numbers only, in %.

Quick batch: normalised response for everything below.
1. Cn1cc(C2=C(c3cn(C4CCN(Cc5ccccn5)CC4)c4ccccc34)C(=O)NC2=O)c2ccccc21 [Enzastaurin] (1 nM)
2. COc1ccc(S(=O)(=O)Nc2cccnc2Nc2ccc(O)cc2)cc1 [ABT-751] (1 nM)
3. Cn1cc(C2=C(c3cn(C4CCN(Cc5ccccn5)CC4)c4ccccc34)C(=O)NC2=O)c2ccccc21 [Enzastaurin] (1000 nM)
4. CCn1c(C(=O)N(C2CC2)C2CC2)cc2c3c(ncn3C)c(Nc3cc(C)n(C)n3)nc21 (10 nM)
5. COc1ccc(S(=O)(=O)Nc2cccnc2Nc2ccc(O)cc2)cc1 [ABT-751] (10 nM)
6. CO[C@@H]1[C@H](N(C)C(=O)c2ccccc2)C[C@H]2O[C@]1(C)n1c3ccccc3c3c4c(c5c6ccccc6n2c5c31)C(=O)NC4 [Midostaurin] (10 nM)
7. O=C(CCCCCCC(=O)Nc1ccccc1)NO [Vorinostat] (1000 nM)

Solution:
1: 109; 2: 95.2; 3: 96.1; 4: 93.3; 5: 105; 6: 96.7; 7: 61.2

For every item below, please supply its normalised response.
1. CC1(C)CCC(c2ccc(Cl)cc2)=C(CN2CCN(c3ccc(C(=O)NS(=O)(=O)c4ccc(N[C@H](CCN5CCOCC5)CSc5ccccc5)c(S(=O)(=O)C(F)(F)F)c4)cc3)CC2)C1 [Navitoclax] (1000 nM)
2. CCNC(=O)CCC/C=C\C[C@@H]1[C@@H](/C=C/[C@@H](O)CCc2ccccc2)[C@H](O)C[C@@H]1O [Bimatoprost] (550 nM)
3. CC(O)(CS(=O)(=O)c1ccc(F)cc1)C(=O)Nc1ccc(C#N)c(C(F)(F)F)c1 (centres undefined) [Bicalutamide] (1000 nM)
4. Cc1nc(C(=O)NCC(=O)O)c(O)c2ccc(Oc3ccccc3)cc12 [FG-4592] (10 nM)
5. CC(C)(C)c1nc(-c2cccc(NS(=O)(=O)c3c(F)cccc3F)c2F)c(-c2ccnc(N)n2)s1 [Dabrafenib] (2.5 nM)
6. CC(C)(C)NC(=O)[C@H]1CC[C@H]2[C@@H]3CC[C@H]4NC(=O)C=C[C@]4(C)[C@H]3CC[C@]12C [Finasteride] (1000 nM)

Solution:
1: 80.9; 2: 93.2; 3: 95; 4: 109; 5: 111; 6: 103

Quick one: give me normalised response for each item below, same order please.
1. CN[C@@H](C)C(=O)N[C@H]1CN(C(=O)CC(C)C)CC[C@H]2CC[C@@H](C(=O)NC(c3ccccc3)c3ccccc3)N2C1=O [AT-406] (10 nM)
2. C=CCn1c(=O)c2cnc(Nc3ccc(N4CCN(C)CC4)cc3)nc2n1-c1cccc(C(C)(C)O)n1 [MK1775] (1 nM)
3. COc1ccc(S(=O)(=O)Nc2cccnc2Nc2ccc(O)cc2)cc1 [ABT-751] (1000 nM)
4. C=CCN(/C=C1/C(=O)O[C@H](COC)[C@@]2(C)C1=C(O)C(=O)C1=C2[C@H](OC(C)=O)C[C@]2(C)C(=O)CC[C@@H]12)CC=C [Sonolisib] (10 nM)

Solution:
1: 89.3; 2: 90.2; 3: 54.8; 4: 104

Report normalised response for each item below.
1. O=[N+]([O-])c1ccc2c(c1)S(=O)(=O)C=C2 [Stattic] (5000 nM)
2. Cc1cn(-c2cc(NC(=O)c3ccc(C)c(Nc4nccc(-c5cccnc5)n4)c3)cc(C(F)(F)F)c2)cn1 [Nilotinib] (10 nM)

Solution:
45
103
